Test system: S. haematobium adult
assayComment: In vitro adult S. haematobium worm assay
Assay type: cell-based
assaySetup: adult EC50 S. haematobium / S. mansoni
reportedEndpoint: Potency ratio Sh/Sm
Answers are plain numbers.

CC(C)c1nc2cnc(-c3ccc(F)c(C(F)(F)F)c3)cn2c1-c1c(F)cc(O)cc1F = 0.4
Fc1c(-c2c(C(F)(F)F)nc3cnc(-c4cccc(C(F)(F)C(F)(F)F)c4)cn23)ccc2[nH]ncc12 = 0.6
Fc1ccc(-c2cn3c(-c4ccc5[nH]ncc5c4F)c(C(F)(F)F)nc3cn2)cc1C(F)(F)C(F)(F)F = 0.7

Next compound, please.
Just so you know, measured Potency ratio Sh/Sm for CC(C)c1cc(-c2cn3c(-c4ccc5[nH]ncc5c4F)c(C4CC4)nc3cn2)ccc1F came out at 0.7

====

assayComment: In vivo efficacy, mouse model of juvenile (21-day old) S. mansoni infection
assaySetup: female, CD1, plasma; mouse, Juvenile infection, oral 50 mg/kg, formulation corn oil; read-out: Plasma conc @24 h (efficacy experiment)
reportedEndpoint: concentration at 24 h (ng/mL)
Answers are plain numbers, in ng/mL.

Just so you know, measured concentration at 24 h for CC(C)c1cc(-c2cn3c(-c4ccc5[nH]ncc5c4F)c(C(F)(F)F)nc3cn2)ccc1F [LSHTM-3661] came out at 178

====

For each record, write down the corresponding half-life.
assayComment: Mouse pharmacokinetics;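 further: three mice per experiment, dosed in 10% DMSO with 50 mM Na2HPO4 buffer plus Tween-80, plasma levels quantified by LC-MS against a calibration line prepared in blank matrix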
Type: in vivo
assaySetup: male, Swiss albino, plasma, iv, 0.5 mg/kg, 0.5 mg/kg iv, in a mixture of 5 compounds, sampled over 24 h
Answers are plain numbers, in h.

Take a look at these entries with their results.
CC(C)c1cc(-c2cn3c(-c4ccc5[nH]ncc5c4F)c(C4CC4)nc3cn2)ccc1F [LSHTM-3686] = 6
Fc1ccc(-c2cn3c(-c4ccc5[nH]ncc5c4F)c(C(F)(F)F)nc3cn2)cc1C(F)(F)C(F)(F)F [LSHTM-3645] = 23.4
Fc1c(-c2c(C(F)(F)F)nc3cnc(-c4cccc(C(F)(F)C(F)(F)F)c4)cn23)ccc2[nH]ncc12 [LSHTM-3608] = 37.1
CC(C)c1nn2cnc(-c3ccc(F)c(C(F)(F)F)c3)cc2c1-c1ccc2[nH]ncc2c1F [LSHTM-3644] = 6.3
CC(C)c1cc(-c2cn3c(-c4ccc5[nH]ncc5c4F)c(C(F)(F)F)nc3cn2)ccc1F [LSHTM-3661] = 4.5
CC(C)c1nc2cnc(-c3ccc(F)c(C(F)(F)F)c3)cn2c1-c1ccc2[nH]ncc2c1F [LSHTM-3604] = 10.5
CC(C)c1nc2cnc(-c3ccc(F)c(C(F)(F)F)c3)cn2c1-c1c(F)cc(O)cc1F [LSHTM-3520] = 7

Next compound, please.
Just so you know, measured half-life for CC(C)Oc1cc(-c2cn3c(-c4ccc5[nH]ncc5c4F)c(C(F)(F)F)nc3cn2)ccc1F [LSHTM-3690] came out at 4.6

====

Tested on: Juvenile S. mansoni
assayComment: In vitro juvenile (3 week old) S. mansoni worm assay
Format: cell-based
assaySetup: Schistosoma mansoni; Table 2; in vitro, 120 h incubation
reportedEndpoint: EC50 (nM)
Numbers only, in nM.

CC(C)c1nc2cnc(-c3ccc(F)c(C(F)(F)F)c3)cn2c1-c1ccc2[nH]ncc2c1F = 33.2
Fc1c(-c2c(C(F)(F)F)nc3cnc(-c4cccc(C(F)(F)C(F)(F)F)c4)cn23)ccc2[nH]ncc12 = 21
Fc1ccc(-c2cn3c(-c4ccc5[nH]ncc5c4F)c(C(F)(F)F)nc3cn2)cc1C(F)(F)C(F)(F)F = 10.7
CC(C)c1cc(-c2cn3c(-c4ccc5[nH]ncc5c4F)c(C4CC4)nc3cn2)ccc1F = 4.1
Fc1ccc(-c2cn3c(-c4ccc5[nH]ncc5c4F)c(C(F)(F)F)nc3cn2)cc1C(F)(F)F = 48

Could you tell me EC50 for each of these molecules? They are listed below.
1. CC(C)c1nn2cnc(-c3ccc(F)c(C(F)(F)F)c3)cc2c1-c1ccc2[nH]ncc2c1F
2. CC(C)c1cc(-c2cn3c(-c4ccc5[nH]ncc5c4F)c(C(F)(F)F)nc3cn2)ccc1F
3. CC(C)Oc1cc(-c2cn3c(-c4ccc5[nH]ncc5c4F)c(C(F)(F)F)nc3cn2)ccc1F
4. CC(C)c1nc2cnc(-c3ccc(F)c(C(F)(F)F)c3)cn2c1-c1c(F)cc(O)cc1F

1. 60
2. 2.7
3. 11.1
4. 27
